// provenance: patent EP0528172A1

system: hypotension induced by PAF; experiment: Inhibition of the hypotensive effect induced by PAF in normotense rats; assay type: in vivo, Sprage Dawley rats; settings: Rattus norvegicus, iv; anesthetized male rats; compound via femoral vein 3 min before PAF (0.5 mcg/Kg, i.v.); dose inhibiting PAF hypotension in a 50%; read-out: ID₅₀
endpoint.name: ED50 (mg/kg)
Respond numerically; units are mg/kg and should not be typed.

Field: example entries. Status: answers known.
Cc1ncccc1C(C#N)N1CCN(C(=O)CC(NCc2ccccc2)c2ccccc2)CC1 (centres unmarked): 0.035
CCOC(=O)NC(CC(=O)N1CCN(C(C#N)c2cccnc2C)CC1)c1ccccc1 (centres unmarked): 0.025

# returns recorded ED50 (system: hypotension induced by PAF) for COC(=O)NC(CC(=O)N1CCN(C(C#N)c2cccnc2C)CC1)c1ccccc1 (centres unmarked)
0.015

For hypotension induced by PAF, provide ED50 of CC(=O)N(O)C(CC(=O)N1CCN(C(C#N)c2cccnc2C)CC1)c1ccccc1 (centres unmarked) please.
0.027

Could you share what ED50 was measured for Cc1ncccc1C(C#N)N1CCN(C(=O)[C@H](C)NC(c2ccccc2)c2ccccc2)CC1 (some centres unmarked) , tested on hypotension induced by PAF?
0.025

I'm curious: which ED50 was measured for CC(=O)NC(CC(=O)N1CCN(C(C#N)c2cccnc2C)CC1)c1ccccc1 (centres unmarked) tested on hypotension induced by PAF?
0.035

Request - read-out ED50 | tested on hypotension induced by PAF | compound Cc1ncccc1C(C#N)N1CCN(C(=O)COC(c2ccccc2)c2ccccc2)CC1 (centres unmarked)
0.048

hypotension induced by PAF / ED50 / Cc1ncccc1C(C#N)N1CCN(C(=O)CCC(c2ccccc2)c2ccccc2)CC1 (centres unmarked) : value?
0.028
